All values here come from PubChem BioAssay (NCI).

test system: T-47D breast; experiment: NCI tumour cell line growth inhibition, 48 h
Please respond with reported TGI for every item in the list.
Give bare numbers, in µM.

Take a look at these entries with their results.
                                   compound  target_entity  quantitative_result
0  CN1CCN(Cc2ccc(NC(=O)c3cncc(C#Cc4c(N)ncc5ccccc45)c3)cc2C(F)(F)F)CC1   T-47D breast                 1.66
1  COc1cc(C(=O)/C=C/c2c[nH]c3ccccc23)cc(OC)c1OC   T-47D breast                 18.4
2  CCOC(=O)Nc1cc2c(c(N)n1)N=C(c1ccc(Cl)cc1Cl)CN2   T-47D breast                 43.1
3  CC[C@@]1(O)C(=O)OCc2c1cc1n(c2=O)Cc2c-1nc1ccc(N)cc1c2CC[Si](C)(C)C   T-47D breast                 20.6
4               Nc1nc(SCC#CCCl)c2[nH]cnc2n1   T-47D breast                 21.1

# batch size: 4; output TGI per entry
1. CN(CCNC(=O)c1nn(C)c2c1Cc1ccccc1-2)CCNC(=O)c1nn(C)c2c1Cc1ccccc1-2
2. Clc1ccc(Cc2nc3cc4ccccc4cc3[nH]2)cc1Cl
3. O=C1c2ccc3c4c(ccc(c24)C(=O)N1CCCCO)C(=O)N(CCCCO)C3=O
4. CCCNC(=O)c1cc(OC)c(OC)cc1NC(=O)C12CC3CC(CC(C3)C1)C2

91.5
39.7
7.26
40.4
